Biological target: Alpha glucosidase (Homo sapiens, UniProt O43451+P10253+P14410+Q2M2H8)
Experiment: Inhibition of alpha-glucosidase (unknown origin)
Assay type: protein assay
reported property: IC50 (µM)

[[record]]
compound = "O=C(Cn1nnc2ccccc21)c1cccc(Br)c1"
reported_property = "IC50"
unit = "µM"
test_value = 4.41

[[record]]
compound = "COc1ccc(C(=O)Cn2nnc3cc(C)c(C)cc32)cc1"
reported_property = "IC50"
unit = "µM"
test_value = 2.6

[[record]]
compound = "O=C(Cn1nnc2ccccc21)c1ccccc1"
reported_property = "IC50"
unit = "µM"
test_value = 4.91

[[record]]
compound = "O=C(c1cccc(Cl)c1)n1nnc2cc(Cl)c(Cl)cc21"
reported_property = "IC50"
unit = "µM"
test_value = 3

[[record]]
compound = "O=C(c1ccc(F)c(F)c1Cl)n1nnc2ccccc21"
reported_property = "IC50"
unit = "µM"
test_value = 5.63

[[record]]
compound = "Cc1cc2nnn(CC(=O)c3ccccc3O)c2cc1C"
reported_property = "IC50"
unit = "µM"
test_value = 3.3

[[record]]
compound = "O=C(c1c(F)cccc1F)n1nnc2ccccc21"
reported_property = "IC50"
unit = "µM"
test_value = 5.23

[[record]]
compound = "O=C(Cn1nnc2ccccc21)c1ccccc1O"
reported_property = "IC50"
unit = "µM"
test_value = 4.87

